- targetDesc: T1, hu-sCD47-6His; extracellular domain of human CD47 antigen with 6His-tag (human)
- T1 construct: also called hCD47-his; soluble hCD47
- procedureDetails: SPR Biacore
The entries below come with measured koff values attached.

binder	koff / s⁻¹
h22-VH3-VL4 (candidate 22.12) (antibody, human IgG4 S228P, kappa, V domains shown, hIgG4-S228P/kappa) VH: QVQLQESGAEVKKPGASVKVSCKASGYTFTTYWMHWVRQAPGQGLEWMGMIHPNSGTTNYNEKFKSRVTMTRDTSTSTVYMELSSLRSEDTAVYYCTRSHYYDGHFSYWGQGTLVTVSS VL: DIVMTQSPDSLPVSLGERATINCKSSQSLLNSRTRKNYLAWYQQKPGQPPKLLIYWASTRESGVPDRFTGSGSGTDFTLTISALQAEDVAVYYCKQSYNLWTFGQGTRLEIKR	0.000252
h22-VH4-VL3 (candidate 22.15) (antibody, human IgG4 S228P, kappa, V domains shown, hIgG4-S228P/kappa) VH: QVQLVQSGAEVKKPGASVKVSCKGSGYTFTTYWMHWVRQAPGQGLEWMGMIHPNSGTTNYNEKFKSRVTLTRDTSISTAYMELSRLTSDDTAVYYCTRSHYYDGHFSYWGQGTMVTVSS VL: EIVLTQSPDSLAVSLGERATINCKSSQSLLNSRTRKNYLAWYQQKAGQSPKLLIYWASTRESGVPDRFSGSGSGTDFTLTIDSLQAEDVAVYYCKQSYNLWTFGGGTKVEIKR	0.000351
h22-VH3-VL3 (candidate 22.11) (antibody, human IgG4 S228P, kappa, V domains shown, hIgG4-S228P/kappa) VH: QVQLQESGAEVKKPGASVKVSCKASGYTFTTYWMHWVRQAPGQGLEWMGMIHPNSGTTNYNEKFKSRVTMTRDTSTSTVYMELSSLRSEDTAVYYCTRSHYYDGHFSYWGQGTLVTVSS VL: EIVLTQSPDSLAVSLGERATINCKSSQSLLNSRTRKNYLAWYQQKAGQSPKLLIYWASTRESGVPDRFSGSGSGTDFTLTIDSLQAEDVAVYYCKQSYNLWTFGGGTKVEIKR	0.000306
h22-VH4-VL4 (candidate 22.16) (antibody, human IgG4 S228P, kappa, V domains shown, hIgG4-S228P/kappa) VH: QVQLVQSGAEVKKPGASVKVSCKGSGYTFTTYWMHWVRQAPGQGLEWMGMIHPNSGTTNYNEKFKSRVTLTRDTSISTAYMELSRLTSDDTAVYYCTRSHYYDGHFSYWGQGTMVTVSS VL: DIVMTQSPDSLPVSLGERATINCKSSQSLLNSRTRKNYLAWYQQKPGQPPKLLIYWASTRESGVPDRFTGSGSGTDFTLTISALQAEDVAVYYCKQSYNLWTFGQGTRLEIKR	0.000263
hIgG4 chimeric candidate 22 (mouse VH/VL, human Fcγ4-S228P and human Kappa backbone) (antibody, V domains shown, hIgG4-S228P/kappa; also called Chim; 22) VH: QVQLQQPGAELVKPGASVKLSCKASGYTFTTYWMHWVKQRPGQGLEWIGMIHPNSGTTNYNEKFKSKATLTVDKSSSSTYMQLSSLTSEDSAVYYCTRSHYYDGHFSYWGQGTLVTVSA VL: DIVMSQSPSSLAVSAGEKVTMSCKSSQSLLNSRTRKNYLAWYQQKPGQSPKLLIYWASTRESGVPDRFTGSGSGTDFTLTISSVQAEDLAVYYCKQSYNLWTFGGGTRLEIKR	0.000381
